Reference source for all entries: paper PMC8370248

# Tested on: CES2 (Homo sapiens)
# Construct: purchased Corning Incorporated (Corning, NY); host or cells: baculovirus-infected insect cells (microsomal fraction, Supersomes)
# Sequence (O00748 27-559): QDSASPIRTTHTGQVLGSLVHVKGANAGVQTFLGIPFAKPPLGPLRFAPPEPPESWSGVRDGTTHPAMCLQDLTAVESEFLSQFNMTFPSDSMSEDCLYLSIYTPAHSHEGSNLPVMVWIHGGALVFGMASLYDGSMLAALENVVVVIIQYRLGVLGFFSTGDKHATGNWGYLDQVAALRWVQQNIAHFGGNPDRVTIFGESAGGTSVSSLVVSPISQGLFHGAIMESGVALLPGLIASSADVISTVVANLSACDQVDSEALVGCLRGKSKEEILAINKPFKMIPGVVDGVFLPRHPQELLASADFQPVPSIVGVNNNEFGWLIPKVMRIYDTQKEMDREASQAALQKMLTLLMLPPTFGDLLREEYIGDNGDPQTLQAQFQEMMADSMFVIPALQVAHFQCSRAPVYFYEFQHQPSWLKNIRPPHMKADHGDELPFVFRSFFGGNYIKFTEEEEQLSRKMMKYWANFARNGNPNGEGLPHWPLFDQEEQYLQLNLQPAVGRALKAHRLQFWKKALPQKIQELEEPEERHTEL
# Measurement protocol: CES2-catalyzed hydrolysis of RDV and control (substrate disappearance, LC-MS)
# Assay type: in vitro ADME
# Test parameters: human, CES2 Supersomes (protein-enriched subcellular fraction), pH 7.4, 1 μM substrate, CES 1.5 mg/ml, pH 7.4, 37°C; read-out: t1/2, CES2 (converted)
Endpoint label: half-life at 1 μM

// fetch CES2 (Homo sapiens) half-life at 1 μM for `CCN(CC)CCOC(=O)c1ccc(N)cc1`
1.83 h

// fetch CES2 (Homo sapiens) half-life at 1 μM for `CCC(CC)COC(=O)[C@H](C)N[P@](=O)(OC[C@H]1O[C@@](C#N)(c2ccc3c(N)ncnn23)[C@H](O)[C@@H]1O)Oc1ccccc1`
> 16.7 h

* * *

# Measurement protocol: A549-hACE2 cytotoxicity analysis
# Test parameters: human, A549-hACE2 cells
Endpoint label: CC50 at 48 h (µM)
The figure you give is taken to be in µM; do not add the unit.

Which CC50 at 48 h is reported for this molecule? `CCC[C@H](NC(=O)[C@@H]1[C@H]2CCC[C@H]2CN1C(=O)[C@@H](NC(=O)[C@@H](NC(=O)c1cnccn1)C1CCCCC1)C(C)(C)C)C(=O)C(=O)NC1CC1`
29.2

* * *

Kindly state half-life at 1 μM for each of the entries shown.
# Tested on: CES1c (Homo sapiens)
# Construct: purchased Corning Incorporated (Corning, NY); host or cells: baculovirus-infected insect cells (microsomal fraction, Supersomes)
# Measurement protocol: CES1c-catalyzed hydrolysis of RDV and control (substrate disappearance, LC-MS)
# Assay type: in vitro ADME
# Test parameters: human, CES1c Supersomes (protein-enriched subcellular fraction); 1 μM substrate, CES 1.5 mg/ml, pH 7.4, 37°C; read-out: t1/2, CES1c (converted)
The figure you give is taken to be in min; do not add the unit.

Which half-life at 1 μM is reported for this compound? CCOC(=O)C1=C[C@@H](OC(CC)CC)[C@H](NC(C)=O)[C@@H](N)C1 [Oseltamivir]
31

Which half-life at 1 μM is reported for this compound? CCC(CC)COC(=O)[C@H](C)N[P@](=O)(OC[C@H]1O[C@@](C#N)(c2ccc3c(N)ncnn23)[C@H](O)[C@@H]1O)Oc1ccccc1 [RDV, Remdesivir]
7.7

* * *

Kindly state pIC50 for each of the entries shown.
# Tested on: CatA (Homo sapiens)
# Sequence (P10619 29-326 limits assumed): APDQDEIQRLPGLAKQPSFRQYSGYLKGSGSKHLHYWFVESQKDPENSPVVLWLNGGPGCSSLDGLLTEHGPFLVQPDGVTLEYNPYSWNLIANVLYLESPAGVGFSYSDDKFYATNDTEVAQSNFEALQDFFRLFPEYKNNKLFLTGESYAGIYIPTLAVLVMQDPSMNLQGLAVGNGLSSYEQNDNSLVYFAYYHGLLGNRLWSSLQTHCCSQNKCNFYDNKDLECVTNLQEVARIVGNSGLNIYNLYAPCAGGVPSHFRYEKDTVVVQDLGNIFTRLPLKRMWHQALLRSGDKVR
# Sequence (P10619 327-480 limits assumed): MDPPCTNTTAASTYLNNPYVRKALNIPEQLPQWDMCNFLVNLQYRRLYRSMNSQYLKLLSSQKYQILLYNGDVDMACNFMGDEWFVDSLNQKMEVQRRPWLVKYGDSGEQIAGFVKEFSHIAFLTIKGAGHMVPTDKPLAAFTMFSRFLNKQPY
# Measurement protocol: CatA-catalyzed hydrolysis of fluorogenic peptide substrate, inhibition
# Assay type: biochemical
# Set-up: purchased R&D Systems (Minneapolis, MN)
# Test parameters: pH 6.5, fluorogenic peptide substrate; read-out: Inhibition (IC50) of enzyme activities, CatA pH 6.5
pIC50: −log10 of the molar value.

// fetch CatA (Homo sapiens) pIC50 for O=[N+]([O-])c1ccc(OP(=O)(O)Oc2ccc([N+](=O)[O-])cc2)cc1 [BNPP, bis(4-nitrophenyl)phosphate]
< 4.00

// fetch CatA (Homo sapiens) pIC50 for `Nc1nc2c(ncn2[C@@H]2O[C@H](COC(=O)NCCc3c[nH]c4ccccc34)[C@@H](O)[C@H]2O)c(=O)[nH]1`
< 4.00

* * *

# Tested on: CES1c (Homo sapiens, UniProt P23141)
# Construct: purchased Corning Incorporated (Corning, NY); host or cells: baculovirus-infected insect cells (microsomal fraction, Supersomes)
# Sequence (P23141 18-566 isoform P23141-3 limits assumed): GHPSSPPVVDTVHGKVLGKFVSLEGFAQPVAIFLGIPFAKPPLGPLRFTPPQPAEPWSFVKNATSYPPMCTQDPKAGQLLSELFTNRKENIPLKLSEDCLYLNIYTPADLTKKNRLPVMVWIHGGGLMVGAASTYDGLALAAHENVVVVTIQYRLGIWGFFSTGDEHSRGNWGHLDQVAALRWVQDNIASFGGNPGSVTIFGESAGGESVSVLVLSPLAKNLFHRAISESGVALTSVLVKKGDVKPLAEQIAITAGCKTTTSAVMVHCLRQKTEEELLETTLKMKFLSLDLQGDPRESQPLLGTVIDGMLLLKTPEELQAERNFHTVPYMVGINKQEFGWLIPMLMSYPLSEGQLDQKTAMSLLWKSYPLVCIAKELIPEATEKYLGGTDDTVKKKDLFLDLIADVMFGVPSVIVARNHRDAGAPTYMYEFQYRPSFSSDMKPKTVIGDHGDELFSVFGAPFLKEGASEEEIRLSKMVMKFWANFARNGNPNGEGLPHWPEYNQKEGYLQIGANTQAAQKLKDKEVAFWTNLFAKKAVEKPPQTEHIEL
# Measurement protocol: CES1c-catalyzed hydrolysis of 4-NPA, inhibition by inhibitors
# Assay type: biochemical
Endpoint label: IC50

Which IC50 is reported for this compound? `CCC[C@H](NC(=O)[C@@H]1[C@H]2CCC[C@H]2CN1C(=O)[C@@H](NC(=O)[C@@H](NC(=O)c1cnccn1)C1CCCCC1)C(C)(C)C)C(=O)C(=O)NC1CC1`
> 100 µM

* * *

# Tested on: CES1b (Homo sapiens, UniProt P23141)
# Construct: purchased Corning Incorporated (Corning, NY); host or cells: baculovirus-infected insect cells (microsomal fraction, Supersomes)
# Measurement protocol: CES1b-catalyzed hydrolysis of RDV and control (substrate disappearance, LC-MS)
# Format: in vitro ADME
# Test parameters: human, CES1b Supersomes (protein-enriched subcellular fraction); 1 μM substrate, CES 1.5 mg/ml, pH 7.4, 37°C; read-out: t1/2, CES1b (converted)
Kindly state half-life at 1 μM for each of the entries shown.

Which half-life at 1 μM is reported for this compound? CCC(CC)COC(=O)[C@H](C)N[P@](=O)(OC[C@H]1O[C@@](C#N)(c2ccc3c(N)ncnn23)[C@H](O)[C@@H]1O)Oc1ccccc1 [RDV, Remdesivir]
9.7 min

Which half-life at 1 μM is reported for this compound? CCOC(=O)C1=C[C@@H](OC(CC)CC)[C@H](NC(C)=O)[C@@H](N)C1 [Oseltamivir]
20 min

* * *

# Measurement protocol: Chemical hydrolysis of MetX under acidic conditions mimicking lysosomal lumen
# Format: physicochemical
# Test parameters: buffer, pH 4.5
Endpoint label: half-life at 1 μM

Which half-life at 1 μM is reported for this compound? `C[C@H](N[P@@](=O)(O)OC[C@H]1O[C@@](C#N)(c2ccc3c(N)ncnn23)[C@H](O)[C@@H]1O)C(=O)O`
> 6.94 days
